System: NCI-H358 (ATCC-CRL5807) cells
ASSAY_EXPLANATION: Cell viability assay, G12C (NCI-H358)
Format: cell-based, human
PROTOCOL_CONDITIONS: Homo sapiens; KRAS cell viability, NCI-H358, 72 hrs, Cell Counting Kit-8
RESULT_TYPE: pIC50
Convention used: pIC50 is expressed as -log10 of the molar concentration.

Field request: pIC50 | item: CO[C@@H](C)c1ncc(N2CCN(C)CC2)cc1-c1c2c3cc(c(F)cc3n1CC(F)(F)F)-c1cc(O)cc(c1)C[C@H](NC(=O)[C@H](C(C)C)N(C)C(=O)[C@H]1CCN(C(=O)[C@H](F)Cl)C1)C(=O)N1CCC[C@H](N1)C(=O)OCC(C)(C)C2 (atropisomer, axis not shown; (M))
8.52

Now the molecule CCn1c(-c2cccnc2COC)c2c3cc(ccc31)-c1cc(O)cc(c1)C[C@H](NC(=O)[C@H](C(C)C)N(C)C(=O)C1CN(C(=O)[C@H](F)Cl)C1)C(=O)N1CCC[C@H](N1)C(=O)OCC(C)(C)C2 [RM461-A, reference compound]
7.35

----------
System: AGS (ATCC-CRL-1739) cells
ASSAY_EXPLANATION: Cell viability assay, G12D (AGS)
Type: cell-based, human
PROTOCOL_CONDITIONS: Homo sapiens, KRAS cell viability, 72 hrs, Cell Counting Kit-8
RESULT_TYPE: IC50 (nM)
Unit nM implied. Number only.

Field request: IC50 | item: CO[C@@H](C)c1ncc(N2CCN(CC(F)(F)F)CC2)cc1-c1c2c3cc(c(F)cc3n1CC(F)(F)F)-c1csc(n1)C[C@H](NC(=O)[C@H](C(C)C)N(C)C(=O)C1(F)CCN(C(=O)[C@H](F)Cl)CC1)C(=O)N1CCC[C@H](N1)C(=O)OCC(C)(C)C2 (atropisomer, axis not shown; (M))
134

Now the compound CCn1c(-c2cc(N3CCN(C)CC3)cnc2[C@H](C)OC)c2c3cc(c(F)cc31)-c1csc(n1)C[C@H](NC(=O)[C@H](C(C)C)N1CCC3(CN(C(=O)[C@H](F)Cl)C3)C1=O)C(=O)N1CCC[C@H](N1)C(=O)OCC(C)(C)C2 (atropisomer, axis not shown; (M))
1230

Now the compound CCn1c(-c2cc(N3CCN(CC(F)(F)F)CC3)cnc2[C@H](C)OC)c2c3cc(c(F)cc31)-c1csc(n1)C[C@H](NC(=O)[C@H](C(C)C)N1CCC3(CCN(C(=O)[C@H](F)Cl)CC3)C1=O)C(=O)N1CCC[C@H](N1)C(=O)OCC(C)(C)C2 (atropisomer, axis not shown; (M))
112

Now the compound CCn1c(-c2cc(N3CCOCC3)cnc2[C@H](C)OC)c2c3cc(c(F)cc31)-c1csc(n1)C[C@H](NC(=O)[C@H](C(C)C)N1CC[C@]3(CCN(C(=O)[C@H](F)Cl)C3)C1=O)C(=O)N1CCC[C@H](N1)C(=O)OCC(C)(C)C2 (atropisomer, axis not shown; (M))
2500

Now the compound CCn1c(-c2cc(N3CCN(CC(F)(F)F)CC3)cnc2[C@H](C)OC)c2c3cc(c(F)cc31)-c1csc(n1)C[C@H](NC(=O)[C@H](C(C)C)N1CC[C@@]3(CCN(C(=O)[C@H](F)Cl)C3)C1=O)C(=O)N1CCC[C@H](N1)C(=O)OCC(C)(C)C2 (atropisomer, axis not shown; (M))
69

Now the compound CO[C@@H](C)c1ncc(N2CCN(C)CC2)cc1-c1c2c3c(F)c(ccc3n1CC(F)(F)F)-c1cc(O)cc(c1)C[C@H](NC(=O)[C@H](C(C)C)N(C)C(=O)[C@H]1CCN(C(=O)[C@H](F)Cl)C1)C(=O)N1CCC[C@H](N1)C(=O)OCC(C)(C)C2 (atropisomer, axis not shown; (M))
37

Now the compound CO[C@@H](C)c1ncc(N2CCN(CC(F)(F)F)CC2)cc1-c1c2c3cc(c(F)cc3n1CC(F)(F)F)-c1csc(n1)C[C@H](NC(=O)[C@H](C(C)C)N1CCC3(CN(C(=O)[C@H](F)Cl)C3)C1=O)C(=O)N1CCC[C@H](N1)C(=O)OCC(C)(C)C2 (atropisomer, axis not shown; (M))
300

Now the compound CO[C@@H](C)c1ncc(N2CCN(C)CC2)cc1-c1c2c3cc(c(F)cc3n1CC(F)(F)F)-c1csc(n1)C[C@H](NC(=O)[C@H](C(C)C)N1CCC3(CCN(C(=O)[C@H](F)Cl)CC3)C1=O)C(=O)N1CCC[C@H](N1)C(=O)OCC(C)(C)C2 (atropisomer, axis not shown; (M))
3240

----------
Tested on: AGS (ATCC-CRL-1739) cells
ASSAY_EXPLANATION: Cell viability assay, G12D (AGS)
Assay type: cell-based, human
PROTOCOL_CONDITIONS: Homo sapiens, KRAS cell viability, 72 hrs, Cell Counting Kit-8
Label 1 when IC50 is strictly below 1000 nM; otherwise label -1.

Determine if CO[C@@H](C)c1ncc(N2CCN(C)CC2)cc1-c1c2c3cc(c(C)cc3n1CC(F)(F)F)-c1csc(n1)C[C@H](NC(=O)[C@H](C(C)C)N(C)C(=O)C1(F)CCN(C(=O)[C@H](F)Cl)CC1)C(=O)N1CCC[C@H](N1)C(=O)OCC(C)(C)C2 (atropisomer, axis not shown; (M)) shows IC50 strictly lower than 1000 nM.
1

Now the molecule CCn1c(-c2cc(N3CCOCC3)cnc2[C@H](C)OC)c2c3cc(c(F)cc31)-c1csc(n1)C[C@H](NC(=O)[C@H](C(C)C)N1CC[C@@]3(CCN(C(=O)[C@H](F)Cl)C3)C1=O)C(=O)N1CCC[C@H](N1)C(=O)OCC(C)(C)C2 (atropisomer, axis not shown; (M))
-1

Now the molecule CO[C@@H](C)c1ncc(N2CCOCC2)cc1-c1c2c3cc(c(F)cc3n1CC(F)(F)F)-c1csc(n1)C[C@H](NC(=O)[C@H](C(C)C)N1CCC3(CN(C(=O)[C@H](F)Cl)C3)C1=O)C(=O)N1CCC[C@H](N1)C(=O)OCC(C)(C)C2 (atropisomer, axis not shown; (M))
-1

Now the molecule CCn1c(-c2cc(N3CCN(CC(F)(F)F)CC3)cnc2[C@H](C)OC)c2c3cc(c(F)cc31)-c1csc(n1)C[C@H](NC(=O)[C@H](C(C)C)N(C)C(=O)C1(F)CCN(C(=O)[C@H](F)Cl)CC1)C(=O)N1CCC[C@H](N1)C(=O)OCC(C)(C)C2 (atropisomer, axis not shown; (M))
1

Now the molecule CC(C)[C@@H](C(=O)N[C@H]1Cc2cc(O)cc(c2)-c2ccc3c(C(C)(C)C#N)cn(c3c2)CC(C)(C)COC(=O)[C@@H]2CCCN(N2)C1=O)N1CCCC2(CCN(C(=O)CCl)C2)C1=O (stereo partly shown) [RM351, reference compound]
-1

Now the molecule CO[C@@H](C)c1ncc(N2CCN(C)CC2)cc1-c1c2c3cc(c(F)cc3n1CC(F)(F)F)-c1csc(n1)C[C@H](NC(=O)[C@H](C(C)C)N(C)C(=O)[C@H]1CCN(C(=O)[C@H](F)Cl)C1)C(=O)N1CCC[C@H](N1)C(=O)OCC(C)(C)C2 (atropisomer, axis not shown; (M))
1

Now the molecule CO[C@@H](C)c1ncc(N2CCN(C)CC2)cc1-c1c2c3cc(c(F)cc3n1CC(F)(F)F)-c1csc(n1)C[C@H](NC(=O)[C@H](C(C)C)N1CCC[C@@]3(CCN(C(=O)[C@H](F)Cl)C3)C1=O)C(=O)N1CCC[C@H](N1)C(=O)OCC(C)(C)C2 (single isomer, unassigned)
-1

----------
SYSTEM: KRAS G12C-BRAF complex (Homo sapiens (Human), UniProt P01116+P62937, G12C)
Sequence (P01116-2 other isoform, or with tags, fused parts or gaps G12C): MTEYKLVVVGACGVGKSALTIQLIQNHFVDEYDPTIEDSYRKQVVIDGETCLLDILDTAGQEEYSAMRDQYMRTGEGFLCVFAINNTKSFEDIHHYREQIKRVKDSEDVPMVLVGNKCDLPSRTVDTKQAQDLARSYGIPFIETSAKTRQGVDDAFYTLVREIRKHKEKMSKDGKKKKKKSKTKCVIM
Sequence (P62937 whole entry): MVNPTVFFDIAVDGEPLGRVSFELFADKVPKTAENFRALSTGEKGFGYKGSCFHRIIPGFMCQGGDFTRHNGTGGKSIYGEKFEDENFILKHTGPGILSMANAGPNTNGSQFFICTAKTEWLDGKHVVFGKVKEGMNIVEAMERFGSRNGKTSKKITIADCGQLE
ASSAY_EXPLANATION: KRAS-BRAF with CYPA (500 nM) interaction assay (TR-FRET), G12C
Format: biochemical
Hi there, I'd appreciate the recorded pIC50 for every entry that follows.
Convention used: pIC50 is expressed as -log10 of the molar concentration.

Field request: pIC50 | item: CO[C@@H](C)c1ncc(N2CCN(C)CC2)cc1-c1c2c3cc(c(F)cc3n1CC(F)(F)F)-c1csc(n1)C[C@H](NC(=O)[C@H](C(C)C)N1CCC[C@]3(CCN(C(=O)[C@H](F)Cl)C3)C1=O)C(=O)N1CCC[C@H](N1)C(=O)OCC(C)(C)C2 (single isomer, unassigned)
7.15

Now the compound CCn1c(-c2cc(N3CCN(CC(F)(F)F)CC3)cnc2[C@H](C)OC)c2c3cc(c(F)cc31)-c1csc(n1)C[C@H](NC(=O)[C@H](C(C)C)N1CCC3(CN(C(=O)[C@H](F)Cl)C3)C1=O)C(=O)N1CCC[C@H](N1)C(=O)OCC(C)(C)C2 (atropisomer, axis not shown; (M))
7.41

Now the compound CO[C@@H](C)c1ncc(N2CCN(C)CC2)cc1-c1c2c3c(F)c(ccc3n1CC(F)(F)F)-c1csc(n1)C[C@H](NC(=O)[C@H](C(C)C)N1CCCC3(CCN(C(=O)[C@H](F)Cl)CC3)C1=O)C(=O)N1CCC[C@H](N1)C(=O)OCC(C)(C)C2 (atropisomer, axis not shown; (M))
6.83

Now the compound CCn1c(-c2cc(N3CCOCC3)cnc2[C@H](C)OC)c2c3cc(c(F)cc31)-c1csc(n1)C[C@H](NC(=O)[C@H](C(C)C)N1CC[C@]3(CCN(C(=O)[C@H](F)Cl)C3)C1=O)C(=O)N1CCC[C@H](N1)C(=O)OCC(C)(C)C2 (atropisomer, axis not shown; (M))
7.13

Now the compound CO[C@@H](C)c1ncc(N2CCN(C)CC2)cc1-c1c2c3cc(c(F)cc3n1CC(F)(F)F)-c1csc(n1)C[C@H](NC(=O)[C@H](C(C)C)N(C)C(=O)C1(F)CCN(C(=O)[C@H](F)Cl)CC1)C(=O)N1CCC[C@H](N1)C(=O)OCC(C)(C)C2 (atropisomer, axis not shown; (M))
7.70

Now the compound CO[C@@H](C)c1ncc(N2CCN(CC(F)(F)F)CC2)cc1-c1c2c3cc(c(F)cc3n1CC(F)(F)F)-c1csc(n1)C[C@H](NC(=O)[C@H](C(C)C)N(C)C(=O)[C@H]1CCN(C(=O)[C@H](F)Cl)C1)C(=O)N1CCC[C@H](N1)C(=O)OCC(C)(C)C2 (atropisomer, axis not shown; (M))
7.34
